Every entry's value here was drawn from BindingDB's records for doi:10.1016/j.ejmech.2020.113033.

- protocol summary: Displacement of [3H]dofetilide from human ERG stably expressed in HEK293 cell membranes assessed as unlabelled dofetilide IC50 at 10 uM measured after 60 mins by microbeta liquid scintillation counting method (Rvb = 9.1 to 11.7 nM)
One threshold, 40 nM, splits the recorded IC50 values: lower ones are yes, equal or higher ones are no.

Consider the worked cases shown below.
O=C(COc1ccc(C(=O)c2cc(Cl)ccc2Br)cc1)Nc1cccc(C(=O)NCC2CC2)c1    yes
O=C(COc1ccc(C(=O)c2cc(Cl)ccc2Br)cc1)Nc1ccnc(F)c1    yes
CNC(=O)c1cccc(NC(=O)COc2ccc(C(=O)c3cc(Cl)ccc3Br)cc2)c1    yes
N#Cc1cc(NC(=O)COc2ccc(C(=O)c3cc(Cl)ccc3Br)cc2)ccc1F    no

Now for a further compound.
// query Please check: IC50 for O=C(COc1ccc(C(=O)c2ccccc2Br)cc1)Nc1cccnc1 , strictly under 40 nM or not?
// result yes

----------
- protocol summary: Displacement of [3H]dofetilide from human ERG stably expressed in HEK293 cell membranes assessed as unlabelled dofetilide IC50 at 3 uM measured after 60 mins by microbeta liquid scintillation counting method (Rvb = 9.1 to 11.7 nM)
metric: IC50

# example entries with known answers
N#Cc1cccc(NC(=O)COc2ccc(C(=O)c3cc(Cl)ccc3Br)cc2)c1F    13 nM
O=C(COc1ccc(C(=O)c2cc(Cl)ccc2Br)cc1)Nc1cccc(C(=O)NC2CC2)c1    11 nM
O=C(COc1ccc(C(=O)c2cc(Cl)ccc2Br)cc1)Nc1cccnc1    35 nM
Cc1cc(NC(=O)COc2ccc(C(=O)c3cc(Cl)ccc3Br)cc2)ccn1    60 nM

// next entry
// IC50 lookup, compound = O=C(COc1ccc(C(=O)c2cc(Cl)ccc2Br)cc1)Nc1ccc(Cl)c(C(=O)NCC2CC2)c1 , result: 18 nM
